The reported numbers originate from patent US9505749B2.

Target: 6×HIS-tankyrase1 (1091-1325) (Homo sapiens (Human))
Sequence (O95271 1091-1325): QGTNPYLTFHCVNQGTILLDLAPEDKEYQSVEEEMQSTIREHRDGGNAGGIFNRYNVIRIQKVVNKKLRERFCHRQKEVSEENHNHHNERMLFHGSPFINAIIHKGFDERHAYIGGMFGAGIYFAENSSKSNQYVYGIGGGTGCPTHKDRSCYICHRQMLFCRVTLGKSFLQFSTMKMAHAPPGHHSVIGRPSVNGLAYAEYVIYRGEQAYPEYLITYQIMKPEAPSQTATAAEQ
Test: Tankyrase 1 biochemical assay (AlphaLisa, PARsylation)
Settings: 400 nM NAD, 60 minutes at RT; read-out: TNKS1 IC50
I'd appreciate it if you could supply IC50 values for the items below.

>>> result("O=C(CCCSc1nc2ccccc2c(=O)[nH]1)N1CCC(c2nnc(-c3ccccc3)o2)CC1")
"88.4 nM"

Dear colleague, could you send me IC50 for each of the items below? Thanks.
1. COc1cccc(-c2nnc(C3CCN(C(=O)CCCc4nc5ccccc5c(=O)[nH]4)CC3)o2)c1
2. N#Cc1ccc(O[C@H]2CC[C@H](NC(=O)CCCc3nc4ccccc4c(=O)[nH]3)CC2)cc1Cl
3. O=C(CCCc1nc2ccccc2c(=O)[nH]1)N1CCC(n2c(=O)sc3ccccc32)CC1
4. O=C(CCc1nc2ccccc2c(=O)[nH]1)N[C@H]1CC[C@H](n2c(=O)[nH]c3cc(Cl)ccc32)CC1
5. O=C(CCSc1nc2ccccc2c(=O)[nH]1)N[C@H]1CC[C@H](c2nnc(-c3cccc(F)c3)o2)CC1
6. O=C(CCCc1nc2ccccc2c(=O)[nH]1)N1CCC(c2nnc(-c3ccccc3Cl)o2)CC1
7. CC(C)(c1ccccc1)c1nnc([C@H]2CC[C@H](NC(=O)CCc3nc4ccccc4c(=O)[nH]3)CC2)o1
8. O=C(CCCc1nc2ccccc2c(=O)[nH]1)N[C@H]1CC[C@H](Oc2cccc(Cl)c2)CC1

Result:
1: 18.8 nM; 2: 1.05 nM; 3: 6.49 nM; 4: 0.524 nM; 5: 0.194 nM; 6: 107 nM; 7: 1210 nM; 8: 3.11 nM
